Method description: Metabolic stability in human liver microsomes assessed as compound remaining at 1 umol/L after 15 to 30 mins by LC/MS/MS analysis
Type: ADME, Microsome
Measurement conditions: read-out: Stability
Provide the reported microsomal CLint at 1 µM of each item.
Unit µL/min/mg implied. Number only.

Form field: reported microsomal CLint at 1 µM of `CN[C@@H](C)C(=O)N[C@H](C(=O)N1C[C@H]2C[C@@H]3C[C@@H]3N2C[C@H]1C(=O)N[C@@H]1CCOc2ccccc21)C1CCCCC1` 72

Form field: reported microsomal CLint at 1 µM of `CN[C@@H](C)C(=O)N[C@H](C(=O)N1C[C@H]2C[C@H]3C[C@H]3N2C[C@H]1C(=O)N[C@@H]1CCOc2ccccc21)C1CCCCC1` 39
